Measured values drawn from patent US9732075B2 for this set.

Target: human orexin-2 receptor (Homo sapiens (Human), UniProt O43614)
Sequence (O43614 whole entry): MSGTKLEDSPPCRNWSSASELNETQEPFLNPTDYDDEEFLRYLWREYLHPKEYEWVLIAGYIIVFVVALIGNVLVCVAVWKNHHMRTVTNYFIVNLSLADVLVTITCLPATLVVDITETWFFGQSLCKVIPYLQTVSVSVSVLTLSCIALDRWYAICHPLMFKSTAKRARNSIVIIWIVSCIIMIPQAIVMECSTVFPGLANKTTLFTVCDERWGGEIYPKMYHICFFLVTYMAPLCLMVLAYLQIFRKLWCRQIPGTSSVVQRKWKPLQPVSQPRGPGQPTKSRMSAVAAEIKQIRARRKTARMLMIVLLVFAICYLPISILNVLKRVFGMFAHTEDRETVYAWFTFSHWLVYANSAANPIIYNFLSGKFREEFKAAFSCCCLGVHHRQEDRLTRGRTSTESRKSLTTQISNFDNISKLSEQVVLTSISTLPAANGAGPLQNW
Assay: In vitro assay: intracellular calcium measurements (FLIPR), antagonistic activity
Settings: CHO cells expressing human orexin-2 receptor, orexin-A agonist, geometric mean, read-out: IC50 Ox2
Simple rule here: IC50 less than 30 nM is true, otherwise false.

>>> df
                                    compound  assigned_label
 0  Cc1nc(C(=O)N2CCC[C@@]2(C)c2nc3cccc(C)c3[nH]2)c(-c2ccccc2)s1            true
 1  COc1ccc2nc([C@@H]3CCCN3C(=O)c3cnc(C)nc3-c3ccc(C)c(C)c3)[nH]c2c1           false
 2  Cc1nc(C(=O)N2CCC[C@@]2(C)c2nc3cc(OC(F)(F)F)ccc3[nH]2)c(-c2cccc(Cl)c2Cl)s1           false
 3  Cc1cc2[nH]c([C@@H]3[C@@H](C)CCN3C(=O)c3c(-c4cccnc4)ccc(C)c3F)nc2cc1Cl           false
 4  C=C1CC(c2nc3cc(Cl)c(C(F)(F)F)cc3[nH]2)N(C(=O)c2nc(C3CC3)sc2-c2cccc(C)c2)C1 (racemic)            true
 5  CCn1c([C@]2(C)CCCN2C(=O)c2cc(C)ccc2-n2nccn2)nc2cc(OC)c(OC)cc21           false
 6  CO[C@@H]1C[C@@H](c2nc3ccc(Cl)c(C)c3[nH]2)N(C(=O)c2ccccc2-c2ccccc2)C1           false
 7  C=C1C[C@@H](c2nc3cc(OC)ccc3[nH]2)N(C(=O)c2ccsc2-c2ccc(C)c(C)c2)C1            true
 8  Cc1ccc(-c2ccc3c(c2)OCO3)c(C(=O)N2CCC[C@@]2(C)c2nc3cc(C(F)(F)F)ccc3[nH]2)c1           false
 9  Cc1nc(C(=O)N2CC[C@H](C)[C@H]2c2nc3cccc(Cl)c3[nH]2)c(-c2cccc(Cl)c2)s1           false
10  Cc1cc(-c2nc(C(=O)N3CCC[C@@]3(C)c3nc4c(C)c(Cl)ccc4[nH]3)c(-c3ccc(F)cc3)s2)ccc1F           false
11  C=C1C[C@@H](c2nc3cc(C)c(C)cc3[nH]2)N(C(=O)c2cc(C)ccc2-n2nccn2)C1            true
12  Cc1nc(C(=O)N2CCCC2c2nc3c(Br)cccc3[nH]2)c(-c2cccc(Cl)c2)s1 (centres unmarked)           false
13  Cc1ccc(-n2cccn2)c(C(=O)N2CCC[C@@]2(C)c2nc3cc(C)c(C)cc3[nH]2)c1           false
14  CSc1cccc2nc([C@@H]3CCCN3C(=O)c3c(F)cccc3-n3nccn3)[nH]c12            true
15  CO[C@H]1CN(C(=O)c2cc(C)ccc2-n2cccn2)C(C)(c2nc3c(C)c(Cl)ccc3[nH]2)C1 (some centres unmarked)            true
16  Cc1nc(C(=O)N2CCCC2c2nc3cc(C(C)(C)C)ccc3[nH]2)c(-c2cccc(Cl)c2)s1 (centres unmarked)           false
17  Cc1nc(C(=O)N2CCCC2c2nc3c(C)c(C)ccc3[nH]2)c(-c2ccccc2)s1 (centres unmarked)            true
18  COCCn1c([C@]2(C)CCCN2C(=O)c2cc(C)ccc2-c2cccc(C)c2)nc2cc(C)c(C)cc21           false
19  COc1ccc(OC)c2[nH]c([C@]3(C)CCCN3C(=O)c3cc(C)ccc3-n3nccn3)nc12           false
20  Cc1ccc(-c2ncccn2)c(C(=O)N2CCC[C@@]2(C)c2nc3cc(Br)cc(C)c3[nH]2)c1            true
21  C=C1C[C@@H](c2nc3cccc(Cl)c3[nH]2)N(C(=O)c2cc(C)ccc2-n2nccn2)C1           false
22  Cc1nc(C(=O)N2CC[C@H](C)[C@H]2c2nc3c(Cl)cccc3[nH]2)c(-c2ccc(C)c(C)c2)s1           false
